# Test system: DENV-2 16681 strain
# procedureDetails: DENV-2 antiviral assay (eGFP-labelled virus in Vero cells)
# Assay type: cell-based, Dengue virus
# conditionNotes: DENV-2 16681 eGFP, MOI 0.5, 3 days
recordedEndpoint: EC50 (nM)

INSERT INTO measurements (compound, resultunit, observed) VALUES
  ('COc1cc(NC(C(=O)c2c[nH]c3cc(OC)c(C)cc23)c2ccc(F)cc2OC)cc(OCCO)c1 (single isomer, unassigned) [Compound 6B]', 'nM', 290),
  ('COc1cc(NC(C(=O)c2c[nH]c3cc(OC)c(F)cc23)c2ccc(F)cc2OC)cc(OCCO)c1 (single isomer, unassigned) [Compound 7A]', 'nM', 4.6),
  ('COc1cc(NC(C(=O)c2c[nH]c3cc(F)ccc23)c2ccc(F)cc2OC)cc(OCCO)c1 (single isomer, unassigned) [Compound 1B]', 'nM', 660);

All values here come from patent US10206902B2.
